studyTarget: recombinant BRD4 BD2 (Homo sapiens, UniProt O60885)
Construct: for recombinant BRD4 BD1 and BRD4 BD2 proteins
assayOverview: Competitive fluorescence-polarization (FP) binding assay, BRD4 BD2
measurementConditions: FP competitive binding, BRD4 BD2; read-out: Binding affinities (FP) BRD4BD2 Ki
endpoint: Ki (µM)

# moleculeSmiles, readingUnit, Ki
measured = [
    ("COc1nc2c(cc1-c1c(C)noc1C)[nH]c1nc(C)nc(N(C)c3nn(C)c4ncccc34)c12", "µM", 0.034),
]

(A) COc1nc2c(cc1-c1c(C)noc1C)[nH]c1nc(C)nc(N(C)c3cccc(C)c3)c12
(B) COc1nc2c(cc1-c1c(C)noc1C)[nH]c1nc(C)nc(Nc3cc(C4CC4)nn3C)c12
input: Parameter check: reported Ki is higher for which label, A or B ? // output: label of the selected item
output: B
(B: 0.067 µM, A: 0.044 µM)

* * *

Test system: MOLM-13
assayOverview: Cell growth inhibition, MOLM-13 leukemia cells (CellTiter-Glo)
Assay type: cell-based
measurementConditions: Homo sapiens, MOLM-13, 96 h; 4 days; read-out: IC50 (nM) MOLM-13 Cell Line (CellTiter-Glo assay)
endpoint: IC50 (nM)

(a) COc1cc2c(cc1-c1c(C)noc1C)[nH]c1nc(C)nc(Nc3c(C)nn(C(C)C)c3C)c12
(b) COc1cc2c(cc1-c1c(C)noc1C)[nH]c1nc(C)nc(Nc3cnn4c3CCCC4)c12
input: Of a and b , which shows the smaller IC50 value? Indicate which entry you chose by stating its label.
output: b
(b: 49.2 nM, a: 103 nM)

(I) COc1cc2c(cc1-c1c(C)noc1C)[nH]c1nc(C)nc(Nc3nn(C)c4c(F)cccc34)c12
(II) COc1cc2c(cc1-c1c(C)noc1C)[nH]c1nc(C)nc(Nc3nn(C)c4cccc(F)c34)c12
input: Hi, I'm comparing two records. Which one has the lower IC50, I or II ? Bench note: the answer is the label of the chosen record.
output: II

(1) COc1cc2c(cc1-c1c(C)noc1C)[nH]c1nc(C)nc(Nc3ccc4cc[nH]c4c3)c12
(2) COc1cc2c(cc1-c1c(C)noc1C)[nH]c1nc(C)nc(Nc3ccc(OC)c4ccccc34)c12
input: Of 1 and 2 , which one carries the higher reported IC50? To answer, give the label that identifies your chosen option.
output: 2
(2: 147 nM, 1: 101 nM)

(P) COc1cc2c(cc1-c1c(C)noc1C)[nH]c1nc(C)nc(Nc3c(C)cnn3C(C)(C)C)c12
(Q) CCn1nc(C)c(C2CC2)c1Nc1nc(C)nc2[nH]c3cc(-c4c(C)noc4C)c(OC)cc3c12
input: Please indicate which has the smaller reported IC50: P , or Q . Write down the label attached to your selection.
output: P

* * *

studyTarget: recombinant BRD4 BD2 (Homo sapiens, UniProt O60885)
Construct: for recombinant BRD4 BD1 and BRD4 BD2 proteins
assayOverview: Competitive fluorescence-polarization (FP) binding assay, BRD4 BD2; for IC50 (nM) BRD4 BD2: probe 1.5 nM
measurementConditions: competitive FP assay; protein 6 nM, probe […]; read-out: IC50 (nM) BRD4 BD2
endpoint: IC50 (nM)

Solved cases below.
# moleculeSmiles, numericResult
measured = [
    ("COc1cc2c(cc1-c1c(C)noc1C)[nH]c1nc(C)nc(Nc3cc(C)n(C)n3)c12", 136),
    ("COc1cc2c(cc1-c1c(C)noc1C)[nH]c1nc(C)nc(Nc3c(C)cnn3C(C)(C)C)c12", 7.5),
    ("COc1cc2c(cc1-c1c(C)noc1C)[nH]c1nc(C)nc(Nc3cc(C4CC4)nn3C)c12", 3.2),
    ("COc1cc2c(cc1-c1c(C)noc1C)[nH]c1nc(C)nc(Nc3cncc(C)c3)c12", 21),
    ("COc1cc2c(cc1-c1c(C)noc1C)[nH]c1nc(C)nc(Nc3cnn4ccccc34)c12", 22.6),
]

(P) COc1cc2c(cc1-c1c(C)noc1C)[nH]c1nc(C)nc(Nc3c(C4CC4)nn(C)c3C3CC3)c12
(Q) COc1cc2c(cc1-c1c(C)noc1C)[nH]c1nc(C)nc(Nc3ccnc4ccccc34)c12
(R) COc1cc2c(cc1-c1c(C)noc1C)[nH]c1nc(C)nc(Nc3nn(C)c4cccnc34)c12
(S) COc1cc2c(cc1-c1c(C)noc1C)[nH]c1nc(C)nc(Nc3nn(C)c4c(F)cccc34)c12
(T) COc1cc2c(cc1-c1c(C)noc1C)[nH]c1nc(C)nc(Nc3nn(C)c4cccc(F)c34)c12
input: Kindly order the items shown according to IC50, from the highest value down. Reply: labels, ordered per the request.
output: T, R, S, Q, P
(T: 718 nM, R: 483 nM, S: 202 nM, Q: 121 nM, P: 28 nM)
